Record form. Attribute: viability, T/C. Fill in for each entry.
# Tested on: 186277-243-T-J2-PDC complex spheroid growth
# METHOD_SUMMARY: Anticancer human tumor 186277-243-T-J2-PDC patient-derived colon adenocarcinoma cell line growth inhibition [AhR]
# RUN_CONDITIONS: second compound 3.16 µM; first compound 0.0316 µM; active compounds read low
Numbers only, in %.

Quick request: viability, T/C for each listed item, please.
1. Nc1ncn(C2CC(O)C(CO)O2)c(=O)n1 (stereo not drawn) + Cc1ccccc1N=Nc1ccc(NC(=O)c2ccnn2C)c(C)c1
2. COc1cc(Nc2ncc3c(n2)-c2ccc(Cl)cc2C(c2c(F)cccc2OC)=NC3)ccc1C(=O)O + Cc1ccccc1N=Nc1ccc(NC(=O)c2ccnn2C)c(C)c1
3. COc1cc(C2c3cc4c(cc3C(OC3OC5COC(C)OC5C(O)C3O)C3COC(=O)C23)OCO4)cc(OC)c1O (stereo not drawn) + CC(CO)NC(=O)c1cc(-c2ccc(Cl)cc2)nn(-c2cnn(C)c2)c1=O

[101, 133, 84.5]

---

# Tested on: 186277-243-T-J2-PDC complex spheroid growth
# METHOD_SUMMARY: Anticancer human tumor 186277-243-T-J2-PDC cell line growth inhibition [AhR];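 note: luminescent signal used as a stand-in for viable cell amount; spheroids exposed to compounds for seven days before the viability read; 100% = DMSO vehicle control wells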
# RUN_CONDITIONS: second compound 10 µM; first compound 0.0316 µM; active compounds read low
I'd appreciate it if you could supply viability, T/C values for the items below.
Answers are plain numbers, in %.

The reported viability, T/C of the molecule COc1cc(Nc2ncc3c(n2)-c2ccc(Cl)cc2C(c2c(F)cccc2OC)=NC3)ccc1C(=O)O + Cc1ccccc1N=Nc1ccc(NC(=O)c2ccnn2C)c(C)c1 was 108

COc1ccc([C@@H](O)c2cc(-c3ncnc4cc(N5CCOCC5)ccc34)c(F)cc2Cl)nn1 + CC(CO)NC(=O)c1cc(-c2ccc(Cl)cc2)nn(-c2cnn(C)c2)c1=O yielded viability, T/C of 88.8

Let us move to another entry and its viability, T/C.
# viability, T/C of CC[C@@]1(O)C(=O)OCc2c1cc1n(c2=O)Cc2cc3c(CN(C)C)c(O)ccc3nc2-1 + CC(CO)NC(=O)c1cc(-c2ccc(Cl)cc2)nn(-c2cnn(C)c2)c1=O = 26.5

---

Please provide measured viability, T/C for the entries that follow.
# Tested on: 186277-243-T-J2-PDC complex spheroid growth
# METHOD_SUMMARY: Anticancer human tumor 186277-243-T-J2-PDC cell line growth inhibition [AhR];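 note: luminescent signal used as a stand-in for viable cell amount; spheroids exposed to compounds for seven days before the viability read; 100% = DMSO vehicle control wells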
# RUN_CONDITIONS: second compound 0.1 µM; first compound 0.0949 µM; active compounds read low
# Excerpt: Multicellular complex tumor spheroid response to aryl hydrocarbon receptor antagonists in combination with a variety of drugs and investigational agents in selected tumor cell lines […] Compounds. […] If the clinical Cmax for an agent had not been determined, the highest concentration tested was 10 microM (Table 1). […]
One number for each entry, in %.

Documented viability, T/C of O=C(C=Cn1cnc(-c2cc(C(F)(F)F)cc(C(F)(F)F)c2)n1)NNc1cnccn1 + Cc1ccccc1N=Nc1ccc(NC(=O)c2ccnn2C)c(C)c1 : 101

Sample Nc1ncn(C2CC(O)C(CO)S2)c(=O)n1 (configuration not stated) + CC(CO)NC(=O)c1cc(-c2ccc(Cl)cc2)nn(-c2cnn(C)c2)c1=O ; viability, T/C observed: 59.6

Form field viability, T/C, entry Nc1ncn(C2CC(O)C(CO)S2)c(=O)n1 (configuration not stated) + Cc1ccccc1N=Nc1ccc(NC(=O)c2ccnn2C)c(C)c1 : 132

Reported viability, T/C of CCN(c1cc(-c2ccc(CN3CCOCC3)cc2)cc(C(=O)NCc2c(C)cc(C)[nH]c2=O)c1C)C1CCOCC1 + Cc1cncc(-c2nc(NCCc3c[nH]c4ccccc34)c3ncn(C(C)C)c3n2)c1 : 108

For record CC(C)CC(NC(=O)C(Cc1ccccc1)NC(=O)c1cnccn1)B(O)O (configuration not stated) + CC(CO)NC(=O)c1cc(-c2ccc(Cl)cc2)nn(-c2cnn(C)c2)c1=O the listed viability, T/C is 0.07

Each molecule below has a recorded value; state its viability, T/C.
1. CC(C)CC(NC(=O)C(Cc1ccccc1)NC(=O)c1cnccn1)B(O)O (configuration not stated) + Cc1ccccc1N=Nc1ccc(NC(=O)c2ccnn2C)c(C)c1
2. CCN(c1cc(-c2ccc(CN3CCOCC3)cc2)cc(C(=O)NCc2c(C)cc(C)[nH]c2=O)c1C)C1CCOCC1 + Cc1ccccc1N=Nc1ccc(NC(=O)c2ccnn2C)c(C)c1
3. CCN(c1cc(-c2ccc(CN3CCOCC3)cc2)cc(C(=O)NCc2c(C)cc(C)[nH]c2=O)c1C)C1CCOCC1 + CC(CO)NC(=O)c1cc(-c2ccc(Cl)cc2)nn(-c2cnn(C)c2)c1=O
4. CCc1c2c(nc3ccc(O)cc13)-c1cc3c(c(=O)n1C2)COC(=O)[C@]3(O)CC + CC(CO)NC(=O)c1cc(-c2ccc(Cl)cc2)nn(-c2cnn(C)c2)c1=O
5. Nc1ncn(C2CC(O)C(CO)S2)c(=O)n1 (configuration not stated) + Cc1cncc(-c2nc(NCCc3c[nH]c4ccccc34)c3ncn(C(C)C)c3n2)c1

1. 1.36
2. 112
3. 82.9
4. 10.3
5. 148

For each of the items listed, what is its viability, T/C?
1. O=C(C=Cn1cnc(-c2cc(C(F)(F)F)cc(C(F)(F)F)c2)n1)NNc1cnccn1 + Cc1cncc(-c2nc(NCCc3c[nH]c4ccccc34)c3ncn(C(C)C)c3n2)c1
2. CCc1c2c(nc3ccc(O)cc13)-c1cc3c(c(=O)n1C2)COC(=O)[C@]3(O)CC + Cc1ccccc1N=Nc1ccc(NC(=O)c2ccnn2C)c(C)c1

114
42.6

Values were extracted from PubChem BioAssay AID1918991.
